# System: HL-60
# EXPERIMENTAL PROTOCOL: Growth inhibition of human HL60 cells after 48 hrs by MTT assay
# Type: functional, cell-based
# RUN PARAMETERS: HL-60, 48 h
MEASURE NAME: IC50 (nM)
Write the answer as a number in nM, unit excluded.

Returns the measured IC50 for the input molecule. Input: CC[C@H](/C=C(/C)[C@@H]1C[C@@H](OC)C[C@H](O)[C@@H](C)[C@@]2(O)O[C@@H](C[C@@H](OC)[C@H](O)C(=O)O1)C[C@@H](OC)[C@H]2O)CO
90

Returns the measured IC50 for the input molecule. Input: CC[C@H](/C=C(/C)[C@@H]1C[C@@H](OC)C[C@H](O)C(C)(C)[C@@]2(O)O[C@@H](C[C@@H](OC)[C@H](O)C(=O)O1)C[C@@H](OC)[C@H]2O)CO
19
